Measured Activity values are reported for all entries that follow.
Test system: FL5.12
Test Details: Induction of apoptosis in 2 ng/ml IL3-induced mouse FL5.12A cells at 10 uM
Format: functional
Value expressed in %; do not type the unit.

Here's what some known entries look like.
Compound Structure	Activity, %
NCCCCNCCCN	5.52
N=C(N)NN	5.17
Cl.NCCCCNCCCCNCc1c2ccccc2cc2ccccc12	67.71

# context switch: different compound, same Activity
# input Report Activity for `Cl.NCCCCNCCCCNCc1c2ccccc2c(CNCCCCNCCCCN)c2ccccc12` please.
# output 5.56

---

Test Details: Chemical stability in phosphate buffer assessed as degraded compound after 48 hrs
Type: physicochemical
Reported Conditions: read-out: Activity
Quantity: degraded at 48 h (%)
Value expressed in %; do not type the unit.

# input Report degraded at 48 h for `NCCCCNCCCCNCc1ccc(N(CCCl)CCCl)cc1` please.
# output 89
